experimental_system: UniProtKB P56817
Sequence (P56817 46-501): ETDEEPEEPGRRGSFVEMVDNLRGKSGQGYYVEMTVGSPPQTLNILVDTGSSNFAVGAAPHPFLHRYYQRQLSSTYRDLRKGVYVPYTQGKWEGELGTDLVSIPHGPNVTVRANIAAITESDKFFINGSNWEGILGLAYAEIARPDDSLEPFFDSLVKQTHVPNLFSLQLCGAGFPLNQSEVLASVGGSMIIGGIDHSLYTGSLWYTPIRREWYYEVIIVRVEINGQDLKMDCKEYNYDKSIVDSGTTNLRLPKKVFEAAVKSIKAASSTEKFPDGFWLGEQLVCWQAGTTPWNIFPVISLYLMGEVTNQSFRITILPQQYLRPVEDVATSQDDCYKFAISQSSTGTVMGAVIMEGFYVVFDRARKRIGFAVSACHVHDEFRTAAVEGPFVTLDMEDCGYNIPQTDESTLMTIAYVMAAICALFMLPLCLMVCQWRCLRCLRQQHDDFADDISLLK
protocol_summary: Asp-2 inhibitory assay (FAM-[SEVNLDAEFK]-TAMRA fluorescence)
Format: biochemical
settings: Assay (I), 1 h at room temperature, pH 4.5; read-out: inhibition (Asp-2)
observed_property: IC50 (nM)
# output: bare number, implied unit nM

Ask | Need IC50, item C[C@H](C[C@H](O)[C@H](Cc1ccccc1)NC(=O)c1ccc(S(C)(=O)=O)s1)C(=O)NCCC(C)(C)C
Reply | 180

---

experimental_system: Cathepsin D (Homo sapiens)
Sequence (P07339 65-412, species assumed): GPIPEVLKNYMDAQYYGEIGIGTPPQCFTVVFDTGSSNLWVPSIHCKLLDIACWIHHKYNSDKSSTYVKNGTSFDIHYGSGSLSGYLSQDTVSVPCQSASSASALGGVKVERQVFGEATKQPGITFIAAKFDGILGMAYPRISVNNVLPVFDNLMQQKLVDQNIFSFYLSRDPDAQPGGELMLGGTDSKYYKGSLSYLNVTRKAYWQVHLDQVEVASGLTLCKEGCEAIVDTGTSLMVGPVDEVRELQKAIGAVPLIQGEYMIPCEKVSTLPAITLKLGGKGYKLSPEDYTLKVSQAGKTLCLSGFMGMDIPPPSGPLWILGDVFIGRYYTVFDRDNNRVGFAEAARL
observed_property: IC50
Give me the value, and tack the unit on after it.

Ask | What value of IC50 has been recorded for this entry: C[C@H](C[C@H](O)[C@H](Cc1ccccc1)NC(=O)c1ccc(S(C)(=O)=O)s1)C(=O)NCCC(C)(C)C
Reply | 9.6 µM
